These data points were gathered from patent US20020028836A1.

# Tested on: tissue strips obtained from Landrace pig bladders
# TEST DESCRIPTION: Functional potassium channel opening activity in isolated bladder strips (field-stimulated twitch)
# CONDITION NOTES: Sus scrofa, amount of agent necessary to cause 50% of the agent's maximal response; read-out: ED50 (the source's name)
QUANTITY NAME: EC50 (µM)

Past entries and their recorded results:
{"COMPOUND": "CC(C)(C)C(NC(=O)c1ccc(I)cc1)NC(=NC#N)Nc1cccnc1 (stereo not drawn)", "QUANTITY NAME": "EC50", "QUANTITATIVE RESULT": 2.4}
{"COMPOUND": "O=C(NC(NC(=S)Nc1cccnc1)C(Cl)(Cl)Cl)c1ccc(I)cc1 (stereo not drawn)", "QUANTITY NAME": "EC50", "QUANTITATIVE RESULT": 1.1}
{"COMPOUND": "CC(Cl)(Cl)C(NC(=O)c1cc(F)cc(F)c1)NC(=NC#N)Nc1cccnc1 (stereo not drawn)", "QUANTITY NAME": "EC50", "QUANTITATIVE RESULT": 7.5}

[1] Cc1ccc(C(=O)NC(NC(=S)Nc2cccnc2)C(C)(C)C)cc1 (stereo not drawn)
[2] Cc1ccc(C(=O)NC(NC(=S)Nc2cccc(F)c2)C(F)(F)F)cc1 (stereo not drawn)
[3] CC(Cl)(Cl)C(NC(=O)c1ccc(Cl)cc1)NC(=NC#N)Nc1cccnc1Cl (stereo not drawn)
Request: Sort the compounds on EC50; start with the lowest figure. Output spec: a listing of the labels in the requested order.
Result: 3, 1, 2
